- Test system: EMT6
- protocol-notes: Light dose required to kill 90% of cells(EMT-6 mammary tumor cell line) after 24 hr incubation with 1 uM concentration
- Format: functional, Mus musculus
Hi there, I'd appreciate the recorded LD90 for every entry that follows.
Response body: numeric value in J cm**-2, unit text excluded.

(Q) Entry Oc1ccc2c(c1)-c1nc-2nc2[n-]c(nc3nc(nc4[n-]c(n1)c1ccccc41)-c1ccccc1-3)c1ccc(O)cc21.[Zn+2] needs its LD90 filled in; supply it.
(A) 0.4

(Q) Respond only with LD90 recorded for Oc1cc2c(cc1O)-c1nc-2nc2[n-]c(nc3nc(nc4[n-]c(n1)c1ccccc41)-c1ccccc1-3)c1ccccc21.[Zn+2]
(A) 0.25

(Q) For the molecule Oc1ccc2c(c1)-c1nc-2nc2[n-]c(nc3nc(nc4[n-]c(n1)c1ccccc41)-c1ccccc1-3)c1ccccc21.[Zn+2] , give its reported LD90.
(A) 0.15

(Q) Write down LD90 measured for item Oc1ccc2c(c1)-c1nc-2nc2[n-]c(nc3nc(nc4[n-]c(n1)c1ccccc41)-c1ccc(O)cc1-3)c1ccc(O)cc21.[Zn+2]
(A) 0.48

* * *

- Tested on: EMT6
- protocol-notes: Light dose required to kill 90% of cells(EMT-6 mammary tumor cell line) after 1 hr incubation with 1 uM concentration
- Assay type: functional, Mus musculus
Answer each item with its documented LD90.
Please respond with the number in J cm**-2 and leave the unit unwritten.

(Q) Write LD90 of Oc1cc2c(cc1O)-c1nc-2nc2[n-]c(nc3nc(nc4[n-]c(n1)c1ccccc41)-c1ccccc1-3)c1ccccc21.[Zn+2] ; system used: EMT6
(A) 2.4

(Q) Give the observed LD90 of Oc1ccc2c(c1)-c1nc-2nc2[n-]c(nc3nc(nc4[n-]c(n1)c1ccccc41)-c1ccccc1-3)c1ccccc21.[Zn+2] for EMT6.
(A) 0.4

(Q) Send back EMT6 LD90 of Oc1ccc2c(c1)-c1nc-2nc2[n-]c(nc3nc(nc4[n-]c(n1)c1ccccc41)-c1ccccc1-3)c1ccc(O)cc21.[Zn+2] only.
(A) 7.5

(Q) Given [Zn+2].c1ccc2c(c1)-c1nc-2nc2[n-]c(nc3nc(nc4[n-]c(n1)c1ccccc41)-c1ccccc1-3)c1ccccc21 , report its LD90 on EMT6.
(A) 0.14

(Q) Fill: LD90 (EMT6) for this molecule Oc1ccc2c(c1)-c1nc-2nc2[n-]c(nc3nc(nc4[n-]c(n1)c1ccccc41)-c1ccc(O)cc1-3)c1ccc(O)cc21.[Zn+2]
(A) 19

These entries and their values trace back to ChEMBL document CHEMBL1131227.
